Tested on: SK-MEL-28
Assay: NCI tumour cell line growth inhibition, 48 h
Active and inactive are the calls of the source. Rule as the data show it: active = GI50 up to about 1.1 µM and inactive = higher.
// values below are reported GI50

Some entries whose results are on file:
[[record]]
compound = "C/C(=N\\NC(C)(C)C)c1sc(-c2nc(C)c(/C(C)=N/NC(C)(C)C)s2)nc1C"
result = "> 100 µM (inactive)"

[[record]]
compound = "Nc1ncnc2c1ncn2C1CCC(CP(=O)(O)O)C1 (configuration not stated)"
result = "> 100 µM (inactive)"

[[record]]
compound = "CSc1nc(=O)c(C#N)c(-c2ccccc2)n1C1OC(COC(C)=O)C(OC(C)=O)C(OC(C)=O)C1OC(C)=O (configuration not stated)"
result = "> 100 µM (inactive)"

[[record]]
compound = "CCN(CC)CCn1ncc2ccc3c(c(=O)c4cccnc4n3CCN(CC)CC)c21"
result = "2.05 µM (inactive)"

[[record]]
compound = "NC(=O)CCSC(CC(=O)c1ccc(Cl)cc1)c1ccc(Cl)cc1 (configuration not stated)"
result = "28.4 µM (inactive)"

[[record]]
compound = "CCCCN(CC)CC(C(C)=O)c1c(O)c2ccccc2oc1=O (configuration not stated)"
result = "> 100 µM (inactive)"

[[record]]
compound = "COc1ccc(-n2nnc3c(C#N)c(-c4ccccc4)c(C)n3c2=O)cc1"
result = "> 100 µM (inactive)"

[[record]]
compound = "Cc1cc2nc(N3C(=O)/C(=C/Cc4ccco4)N=C3c3ccccc3)sc2cc1C"
result = "64.6 µM (inactive)"

[[record]]
compound = "O=c1c(O)c(-c2ccc(O)c(O)c2)oc2cc(O)cc(O)c12"
result = "94.6 µM (inactive)"

[[record]]
compound = "O=c1cc(-c2ccccc2)[nH]c2c(Cl)cccc12"
result = "> 100 µM (inactive)"


Incoming: Form field - read-out: GI50; system: SK-MEL-28; submitted item: `O=C(O)c1cc(-c2ccc3cc(O)c(O)cc3c2)ccc1O`
Outgoing: > 12.5 µM (inactive)

Incoming: Form field - read-out: GI50; system: SK-MEL-28; submitted item: `C/C(CC(=O)NCCc1ccccc1)=N\NC(=O)C[n+]1ccccc1`
Outgoing: > 100 µM (inactive)

----------
// values below are reported GI50
Tested on: HOP-62
Assay: NCI tumour cell line growth inhibition, 48 h
Activity calls are given as the source filed them. Rule as the data show it: active = GI50 up to about 1.1 µM and inactive = higher.

Incoming: Form field - read-out: GI50; system: HOP-62; submitted item: `CSc1ncnc2c1CCN2`
Outgoing: > 100 µM (inactive)

Incoming: Form field - read-out: GI50; system: HOP-62; submitted item: `O=C1CCCCC1=C(I)I`
Outgoing: 28.7 µM (inactive)

Incoming: Form field - read-out: GI50; system: HOP-62; submitted item: `CCCCCCCCC(=O)CCCCCCCCC(=O)O`
Outgoing: 26.9 µM (inactive)

Incoming: Form field - read-out: GI50; system: HOP-62; submitted item: O=C(O)C1C2C=CC(C2)C1c1ccccc1 (centres undefined)
Outgoing: > 100 µM (inactive)

Incoming: Form field - read-out: GI50; system: HOP-62; submitted item: CN1CCCOC(c2ccc(Cl)cc2)O1 (centres undefined)
Outgoing: > 100 µM (inactive)

Incoming: Form field - read-out: GI50; system: HOP-62; submitted item: O=C1Nc2ccccc2C1Cc1ccccc1 (centres undefined)
Outgoing: > 100 µM (inactive)
